Data provenance: patent US20230364109A1

# method: solubility of ganaxolone
# Assay type: physicochemical
# conditionsUsed: aqueous with cosolvent or surfactant or cyclodextrin; beta-sulfobutyl-cyclodextrin, 2-hydroxypropylbetacyclodextrin; read-out: concentration dissolved using water soluble beta cyclodextrins
outcomeMeasure: solubility

>>> result("CC(=O)[C@H]1CC[C@H]2[C@@H]3CC[C@H]4C[C@](C)(O)CC[C@]4(C)[C@H]3CC[C@]12C [ganaxolone, 3α-hydroxy-3β-methyl-5α-pregnan-20-one]")
"> 1000 µg/mL"
